assay: Antiproliferative activity against human GBC-SD cells after 48 hrs by MTT assay; type: functional, cell-based
pIC50: −log10 of the molar value.
PARAMETER: pIC50

[[record]]
compound = "O=C1CCC[C@@H]2[C@H]3CCCN4CCC[C@@H](CN12)[C@@H]34 [MATRINE]"
numeric_result = 2.70


====

tested on: HT-29; experiment: Antiproliferative activity against human HT-29 cells by MTT assay; format: functional, cell-based
The label is YES for IC50 below 20 µM and NO for IC50 equal to or exceeding 20 µM.

[[record]]
compound = "COc1ccc(/C=C2\\CC[C@@H]3[C@H]4CCCN5CCC[C@@H](CN3C2=O)[C@@H]45)cc1OC"
class_label = "YES"

[[record]]
compound = "COc1ccc(/C=C2\\CC[C@@H]3[C@H]4CCCN5CCC[C@@H](CN3C2=O)[C@@H]45)c(OC)c1OC"
class_label = "YES"

[[record]]
compound = "COc1ccc(/C=C2\\CC[C@@H]3[C@H]4CCCN5CCC[C@@H](CN3C2=O)[C@@H]45)cc1"
class_label = "NO"

[[record]]
compound = "O=C1CCC[C@@H]2[C@H]3CCCN4CCC[C@@H](CN12)[C@@H]34 [MATRINE]"
class_label = "NO"

[[record]]
compound = "COc1cc(/C=C2\\CC[C@@H]3[C@H]4CCCN5CCC[C@@H](CN3C2=O)[C@@H]45)cc(OC)c1OC"
class_label = "YES"

